# Lookup of reported solubility (mole fraction) keyed by entry
conditions-used: in 2-butanone, 323.2 K
value-kind: solubility (mole fraction)

| compound | value-kind | assay-value |
| --- | --- | --- |
| Cc1nnc(C(C)C)n1C1C[C@H]2CC[C@@H](C1)N2CC[C@H](NC(=O)C1CCC(F)(F)CC1)c1ccccc1 (some centres not stated) | solubility (mole fraction) | 0.00351 |
| O=C(Nc1c(Cl)cncc1Cl)c1ccc(OC(F)F)c(OCC2CC2)c1 | solubility (mole fraction) | 0.00118 |

---

# Lookup of reported solubility (mole fraction) keyed by entry
conditions-used: in n-butanol, 278.2 K

| compound | solubility (mole fraction) |
| --- | --- |
| Cc1nnc(C(C)C)n1C1C[C@H]2CC[C@@H](C1)N2CC[C@H](NC(=O)C1CCC(F)(F)CC1)c1ccccc1 (some centres not stated) | 0.0002 |
| O=C(Nc1c(Cl)cncc1Cl)c1ccc(OC(F)F)c(OCC2CC2)c1 | 4.5e-05 |

---

# Lookup of reported solubility (mole fraction) keyed by entry
conditions-used: in DMF, 288.2 K
value-kind: solubility (mole fraction)

| molecule | assay-value |
| --- | --- |
| Cc1nnc(C(C)C)n1C1C[C@H]2CC[C@@H](C1)N2CC[C@H](NC(=O)C1CCC(F)(F)CC1)c1ccccc1 (some centres not stated) | 7.6e-05 |
| O=C(Nc1c(Cl)cncc1Cl)c1ccc(OC(F)F)c(OCC2CC2)c1 | 8e-06 |

---

# Lookup of reported solubility (mole fraction) keyed by entry
conditions-used: in DMSO, 298.2 K
value-kind: solubility (mole fraction)

| compound | assay-value |
| --- | --- |
| O=C(Nc1c(Cl)cncc1Cl)c1ccc(OC(F)F)c(OCC2CC2)c1 | 0.000132 |
| Cc1nnc(C(C)C)n1C1C[C@H]2CC[C@@H](C1)N2CC[C@H](NC(=O)C1CCC(F)(F)CC1)c1ccccc1 (some centres not stated) | 8.4e-05 |

---

conditions-used: in 2-pentanone, 303.2 K
# Lookup of reported solubility (mole fraction) keyed by entry

| compound | solubility (mole fraction) |
| --- | --- |
| Cc1nnc(C(C)C)n1C1C[C@H]2CC[C@@H](C1)N2CC[C@H](NC(=O)C1CCC(F)(F)CC1)c1ccccc1 (some centres not stated) | 0.00087 |
| O=C(Nc1c(Cl)cncc1Cl)c1ccc(OC(F)F)c(OCC2CC2)c1 | 0.000311 |

---

# Lookup of reported solubility (mole fraction) keyed by entry
conditions-used: in DMF, 298.2 K

| compound | solubility (mole fraction) |
| --- | --- |
| O=C(Nc1c(Cl)cncc1Cl)c1ccc(OC(F)F)c(OCC2CC2)c1 | 1.9e-05 |
| Cc1nnc(C(C)C)n1C1C[C@H]2CC[C@@H](C1)N2CC[C@H](NC(=O)C1CCC(F)(F)CC1)c1ccccc1 (some centres not stated) | 0.000168 |

---

conditions-used: in n-butanol, 283.2 K
# Lookup of reported solubility (mole fraction) keyed by entry

| molecule | solubility (mole fraction) |
| --- | --- |
| O=C(Nc1c(Cl)cncc1Cl)c1ccc(OC(F)F)c(OCC2CC2)c1 | 6.2e-05 |
| Cc1nnc(C(C)C)n1C1C[C@H]2CC[C@@H](C1)N2CC[C@H](NC(=O)C1CCC(F)(F)CC1)c1ccccc1 (some centres not stated) | 0.000293 |

---

conditions-used: in 2-pentanone, 313.2 K
# Lookup of reported solubility (mole fraction) keyed by entry

| molecule | solubility (mole fraction) |
| --- | --- |
| Cc1nnc(C(C)C)n1C1C[C@H]2CC[C@@H](C1)N2CC[C@H](NC(=O)C1CCC(F)(F)CC1)c1ccccc1 (some centres not stated) | 0.00168 |
| O=C(Nc1c(Cl)cncc1Cl)c1ccc(OC(F)F)c(OCC2CC2)c1 | 0.000551 |

---

# Lookup of reported solubility (mole fraction) keyed by entry
conditions-used: in ethanol, 303.2 K

| compound | solubility (mole fraction) |
| --- | --- |
| O=C(Nc1c(Cl)cncc1Cl)c1ccc(OC(F)F)c(OCC2CC2)c1 | 0.000297 |
| Cc1nnc(C(C)C)n1C1C[C@H]2CC[C@@H](C1)N2CC[C@H](NC(=O)C1CCC(F)(F)CC1)c1ccccc1 (some centres not stated) | 0.00144 |

---

# Lookup of reported solubility (mole fraction) keyed by entry
conditions-used: in ethanol, 323.2 K

| compound | solubility (mole fraction) |
| --- | --- |
| O=C(Nc1c(Cl)cncc1Cl)c1ccc(OC(F)F)c(OCC2CC2)c1 | 0.000989 |
| Cc1nnc(C(C)C)n1C1C[C@H]2CC[C@@H](C1)N2CC[C@H](NC(=O)C1CCC(F)(F)CC1)c1ccccc1 (some centres not stated) | 0.00461 |

---

conditions-used: in 2-pentanone, 298.2 K
# Lookup of reported solubility (mole fraction) keyed by entry

| molecule | solubility (mole fraction) |
| --- | --- |
| O=C(Nc1c(Cl)cncc1Cl)c1ccc(OC(F)F)c(OCC2CC2)c1 | 0.000219 |
| Cc1nnc(C(C)C)n1C1C[C@H]2CC[C@@H](C1)N2CC[C@H](NC(=O)C1CCC(F)(F)CC1)c1ccccc1 (some centres not stated) | 0.000607 |

---

conditions-used: in ethanol, 318.2 K

| molecule | solubility (mole fraction) |
| --- | --- |
| O=C(Nc1c(Cl)cncc1Cl)c1ccc(OC(F)F)c(OCC2CC2)c1 | 0.000734 |
| Cc1nnc(C(C)C)n1C1C[C@H]2CC[C@@H](C1)N2CC[C@H](NC(=O)C1CCC(F)(F)CC1)c1ccccc1 (some centres not stated) | 0.00344 |

---

conditions-used: in water, 293.2 K

| compound | solubility (mole fraction) |
| --- | --- |
| Cc1nnc(C(C)C)n1C1C[C@H]2CC[C@@H](C1)N2CC[C@H](NC(=O)C1CCC(F)(F)CC1)c1ccccc1 (stereo partly specified) | 1.7e-05 |

---

# Lookup of reported solubility (mole fraction) keyed by entry
conditions-used: in DMF, 293.2 K
value-kind: solubility (mole fraction)

| molecule | assay-value |
| --- | --- |
| O=C(Nc1c(Cl)cncc1Cl)c1ccc(OC(F)F)c(OCC2CC2)c1 | 1.3e-05 |
| Cc1nnc(C(C)C)n1C1C[C@H]2CC[C@@H](C1)N2CC[C@H](NC(=O)C1CCC(F)(F)CC1)c1ccccc1 (some centres not stated) | 0.000112 |

---

conditions-used: in n-butanol, 298.2 K
# Lookup of reported solubility (mole fraction) keyed by entry
value-kind: solubility (mole fraction)

| compound | assay-value |
| --- | --- |
| O=C(Nc1c(Cl)cncc1Cl)c1ccc(OC(F)F)c(OCC2CC2)c1 | 0.000156 |
| Cc1nnc(C(C)C)n1C1C[C@H]2CC[C@@H](C1)N2CC[C@H](NC(=O)C1CCC(F)(F)CC1)c1ccccc1 (some centres not stated) | 0.000778 |

---

conditions-used: in ethanol, 293.2 K
value-kind: solubility (mole fraction)

| compound | value-kind | assay-value |
| --- | --- | --- |
| Cc1nnc(C(C)C)n1C1C[C@H]2CC[C@@H](C1)N2CC[C@H](NC(=O)C1CCC(F)(F)CC1)c1ccccc1 (some centres not stated) | solubility (mole fraction) | 0.000716 |
| O=C(Nc1c(Cl)cncc1Cl)c1ccc(OC(F)F)c(OCC2CC2)c1 | solubility (mole fraction) | 0.00015 |

---

conditions-used: in 2-butanone, 308.2 K
# Lookup of reported solubility (mole fraction) keyed by entry

| molecule | solubility (mole fraction) |
| --- | --- |
| Cc1nnc(C(C)C)n1C1C[C@H]2CC[C@@H](C1)N2CC[C@H](NC(=O)C1CCC(F)(F)CC1)c1ccccc1 (some centres not stated) | 0.00137 |
| O=C(Nc1c(Cl)cncc1Cl)c1ccc(OC(F)F)c(OCC2CC2)c1 | 0.000448 |

---

# Lookup of reported solubility (mole fraction) keyed by entry
conditions-used: in n-butanol, 313.2 K
value-kind: solubility (mole fraction)

| compound | assay-value |
| --- | --- |
| Cc1nnc(C(C)C)n1C1C[C@H]2CC[C@@H](C1)N2CC[C@H](NC(=O)C1CCC(F)(F)CC1)c1ccccc1 (some centres not stated) | 0.00212 |
| O=C(Nc1c(Cl)cncc1Cl)c1ccc(OC(F)F)c(OCC2CC2)c1 | 0.000411 |

---

# Lookup of reported solubility (mole fraction) keyed by entry
conditions-used: in DMSO, 308.2 K

| compound | solubility (mole fraction) |
| --- | --- |
| Cc1nnc(C(C)C)n1C1C[C@H]2CC[C@@H](C1)N2CC[C@H](NC(=O)C1CCC(F)(F)CC1)c1ccccc1 (some centres not stated) | 0.000173 |
| O=C(Nc1c(Cl)cncc1Cl)c1ccc(OC(F)F)c(OCC2CC2)c1 | 0.000236 |

---

# Lookup of reported solubility (mole fraction) keyed by entry
conditions-used: in ethanol, 313.2 K
value-kind: solubility (mole fraction)

| compound | assay-value |
| --- | --- |
| Cc1nnc(C(C)C)n1C1C[C@H]2CC[C@@H](C1)N2CC[C@H](NC(=O)C1CCC(F)(F)CC1)c1ccccc1 (some centres not stated) | 0.00263 |
| O=C(Nc1c(Cl)cncc1Cl)c1ccc(OC(F)F)c(OCC2CC2)c1 | 0.000533 |

All figures here come from BigSolDB 2.1.
